Numbers sourced from paper PMC6429263.

System: MRSA ATCC-B AA-1708
Assay Method Text: MIC, agar dilution, MRSA ATCC-BAA-1708 (mupA positive)
Format: cell-based
Protocol Conditions: Staphylococcus aureus; MRSA ATCC-BAA-1708, mupA positive (mupirocin resistance); read-out: MIC
Readout Type: MIC (µg/mL)
Give bare numbers, in µg/mL.

Record MIC per entry; entries follow.
1. COc1ccc2c(c[n+]3ccc4cc5c(c6c(Cc7ccccc7[N+](=O)[O-])cc2c3c46)OCO5)c1O [13p]
2. COc1ccc2c(c[n+]3ccc4cc5c(c6c(Cc7ccc(OC(F)(F)F)cc7)cc2c3c46)OCO5)c1O [13l]
3. COc1ccc2c(c[n+]3ccc4cc5c(c6c(Cc7cc(C)cc(C)c7)cc2c3c46)OCO5)c1O [13j]
4. COc1ccc2c(c[n+]3ccc4cc5c(c6c(Cc7ccc(C(C)(C)C)cc7)cc2c3c46)OCO5)c1O [13k]

[4, 32, 16, 8]

###

Assay Method Text: Stability in liver microsomes, mouse
Type: in vitro ADME, CD-1 mouse
Protocol Conditions: CD-1, 1 μM, read-out: CL Int (mic)
Readout Type: microsomal CLint at 1 μM (µL/min/mg)
Numbers only, in µL/min/mg.

Could you share which microsomal CLint at 1 μM value was measured for C[C@]12CC[C@H]3[C@@H](CCC4=CC(=O)CC[C@@]43C)[C@@H]1CC[C@@H]2O [Tes, testosterone, reference compound] ?
254

###

System: MRSA ATCC-B AA-1708
Assay Method Text: MIC, agar dilution, MRSA ATCC-BAA-1708 (mupA positive)
Assay type: cell-based
Protocol Conditions: Staphylococcus aureus; MRSA ATCC-BAA-1708, mupA positive (mupirocin resistance); read-out: MIC
Readout Type: MIC

Past entries and their recorded results:
What MIC appears in the records for this compound with MRSA ATCC-B AA-1708? C[C@H]1COc2c(N3CCN(C)CC3)c(F)cc3c(=O)c(C(=O)O)cn1c23 [Lev, levofloxacin, reference compound]
16 µg/mL

Entry to check: `COc1ccc2c(c[n+]3c4c2ccc2c(O)c(O)cc(c24)CC3)c1O`
16 µg/mL

Entry to check: COc1ccc2c(c[n+]3ccc4cc5c(c6c(Cc7ccccc7C#N)cc2c3c46)OCO5)c1O [13m]
> 64 µg/mL

Entry to check: `COc1ccc2c(c[n+]3c4c2ccc2c(OC)c(OC)cc(c24)CC3)c1O`
> 64 µg/mL

Entry to check: COc1ccc2c(c[n+]3ccc4cc5c(c6c(Cc7ccc(Cl)cc7)cc2c3c46)OCO5)c1O [13e]
8 µg/mL

Record MIC per entry; entries follow.
1. COc1ccc2c(c[n+]3ccc4cc5c(c6c(Cc7cccc([N+](=O)[O-])c7)cc2c3c46)OCO5)c1O [13q]
2. COc1ccc2c(c[n+]3ccc4cc5c(c6c(Cc7ccc(F)cc7)cc2c3c46)OCO5)c1O [13b]
3. COc1ccc2c(c[n+]3ccc4cc5c(c6c(Cc7cccc(C#N)c7)cc2c3c46)OCO5)c1O [13n]

> 64 µg/mL
> 64 µg/mL
> 64 µg/mL

###

Where a name gives a salt, the structure may show the parent alone.
Would you kindly list melting point for each of these compounds?

Past entries and their recorded results:
Could you share which melting point value was measured for COc1ccc2c(c[n+]3ccc4cc5c(c6c(Cc7ccc(OC(F)(F)F)cc7)cc2c3c46)OCO5)c1O (as salt: chloride) [13l] ?
185 to 187 °C

Entry to check: CCCCc1cc2c3ccc(OC)c(O)c3c[n+]3ccc4cc5c(c1c4c23)OCO5 (as salt: chloride) [15c]
162 to 164 °C

Entry to check: COc1ccc2c(c[n+]3ccc4cc5c(c6c(Cc7ccc(C#N)cc7)cc2c3c46)OCO5)c1O (as salt: chloride) [13o]
197 to 199 °C

Entry to check: COc1ccc2c(c[n+]3ccc4cc5c(c6c(Cc7cc(C)cc(C)c7)cc2c3c46)OCO5)c1O (as salt: chloride) [13j]
218 to 220 °C

Entry to check: COc1ccc2c(c[n+]3ccc4cc5c(c6c(Cc7ccc(C(C)(C)C)cc7)cc2c3c46)OCO5)c1O (as salt: chloride) [13k]
212 to 214 °C

Entry to check: COc1ccc2c(c[n+]3ccc4cc5c(c6c(Cc7ccc(Cl)cc7)cc2c3c46)OCO5)c1O (as salt: chloride) [13e]
199 to 201 °C

Record melting point per entry; entries follow.
1. COc1ccc2c(c[n+]3ccc4cc5c(c6c(Cc7cccc([N+](=O)[O-])c7)cc2c3c46)OCO5)c1O (as salt: chloride) [13q]
2. COc1ccc2c(c[n+]3ccc4cc5c(c6c(Cc7ccc(Br)cc7)cc2c3c46)OCO5)c1O (as salt: chloride) [13f]

186 to 188 °C
207 to 209 °C

Record melting point per entry; entries follow.
1. COC(=O)C(c1ccccc1)c1cc2c3ccc(OC)c(O)c3c[n+]3ccc4cc5c(c1c4c23)OCO5 (centres unmarked) (as salt: chloride) [13t]
2. COc1ccc2c(c[n+]3ccc4cc5c(c6c(Cc7ccccc7C#N)cc2c3c46)OCO5)c1O (as salt: chloride) [13m]
3. COc1ccc2c(c[n+]3ccc4cc5c(c6c(Cc7ccccc7)cc2c3c46)OCO5)c1O (as salt: chloride) [13a]
4. COc1ccc2c(c[n+]3ccc4cc5c(c6c(Cc7cccc(C)c7)cc2c3c46)OCO5)c1O (as salt: chloride) [13h]
5. COc1ccc2c(c[n+]3ccc4cc5c(c6c(Cc7ccc([N+](=O)[O-])cc7)cc2c3c46)OCO5)c1O (as salt: chloride) [13r]
6. COc1ccc2c(c[n+]3ccc4cc5c(c6c(Cc7ccc(F)cc7F)cc2c3c46)OCO5)c1O (as salt: chloride) [13c]

1: 173 to 175 °C; 2: 209 to 211 °C; 3: 248 to 250 °C; 4: 203 to 205 °C; 5: 186 to 188 °C; 6: 218 to 220 °C

###

Would you kindly list melting point for each of these compounds?
Counter-ions that a name gives are not always drawn.

Past entries and their recorded results:
Could you share which melting point value was measured for COc1ccc2c(c[n+]3ccc4cc5c(c6c(Cc7ccc(C)cc7)cc2c3c46)OCO5)c1O (as salt: chloride) [13i] ?
229 to 231 °C

Entry to check: COc1ccc2c(c[n+]3ccc4cc5c(c6c(Cc7c(F)cccc7F)cc2c3c46)OCO5)c1O (as salt: chloride) [13d]
214 to 216 °C

Entry to check: COc1ccc2c(c[n+]3c4c2ccc2c(O)c(O)cc(c24)CC3)c1O (as salt: chloride) [compound 10]
191 to 193 °C

Entry to check: COc1ccc2c(c[n+]3ccc4cc5c(c6c(C(C)c7ccccc7)cc2c3c46)OCO5)c1O (stereo not drawn) (as salt: chloride) [13s]
213 to 215 °C

Record melting point per entry; entries follow.
1. COc1ccc2c(c[n+]3ccc4cc5c(c6c(Cc7ccc(F)cc7)cc2c3c46)OCO5)c1O (as salt: chloride) [13b]
2. COc1ccc2c(c[n+]3ccc4cc5c(c6c(Cc7cccc(C#N)c7)cc2c3c46)OCO5)c1O (as salt: chloride) [13n]
3. CCCc1cc2c3ccc(OC)c(O)c3c[n+]3ccc4cc5c(c1c4c23)OCO5 (as salt: chloride) [15b]
4. COc1ccc2c(c[n+]3ccc4cc5c(c6c(Cc7ccccc7[N+](=O)[O-])cc2c3c46)OCO5)c1O (as salt: chloride) [13p]

1. 203 to 205 °C
2. 189 to 191 °C
3. 165 to 167 °C
4. 199 to 201 °C

Could you share which melting point value was measured for COc1ccc2c(c[n+]3ccc4cc5c(c6c(Cc7ccccc7C)cc2c3c46)OCO5)c1O (as salt: chloride) [13g] ?
203 to 205 °C

###

Test system: MRSA 13-23
Assay Method Text: MIC, agar dilution, MRSA 13-23
Assay type: cell-based
Protocol Conditions: Staphylococcus aureus; MRSA 13-23; read-out: MIC
Just a reminder that ties go to 0 (no): only MIC strictly below 30 µg/mL counts as 1 (yes).

Here's what some known entries look like.
Lab log: compare recorded MIC with 30 µg/mL; is it strictly lower for COc1ccc2c(c[n+]3ccc4cc5c(c6c(Cc7ccccc7C#N)cc2c3c46)OCO5)c1O [13m] ?
0 (no)

Entry to check: COc1ccc2c(c[n+]3ccc4cc5c(c6c(Cc7c(F)cccc7F)cc2c3c46)OCO5)c1O [13d]
0 (no)

Entry to check: COc1ccc2c(c[n+]3ccc4cc5c(c6c(Cc7cc(C)cc(C)c7)cc2c3c46)OCO5)c1O [13j]
0 (no)

Entry to check: COc1ccc2c(c[n+]3ccc4cc5c(c6c(Cc7ccc(Cl)cc7)cc2c3c46)OCO5)c1O [13e]
1 (yes)

Entry to check: COc1ccc2c(c[n+]3ccc4cc5c(c6c(Cc7ccccc7)cc2c3c46)OCO5)c1O [13a]
1 (yes)

Entry to check: `COc1ccc2c(c[n+]3c4c2ccc2c(O)c(O)cc(c24)CC3)c1O`
0 (no)

Entry to check: CCCc1cc2c3ccc(OC)c(O)c3c[n+]3ccc4cc5c(c1c4c23)OCO5 [15b]
1 (yes)

Moving on to the next compound.
Lab log: compare recorded MIC with 30 µg/mL; is it strictly lower for CCCCc1cc2c3ccc(OC)c(O)c3c[n+]3ccc4cc5c(c1c4c23)OCO5 [15c] ?
1 (yes)
